assay_procedure: human hepatoma cell viability loss – ATP luminescence, cytotoxicity control for P. falciparum antimalarial project, primary screen (AID 2303);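 further: 0% = DMSO wells and 100% = digitonin-killed cells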
condition_parameters: HepG2 viability, 24-48 h, at 10 µM, hits give high values
The source made the active and inactive calls.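 How the source made its calls: active means inhibition above 50%; inactive means the rest.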
recorded_endpoint: inhibition

{"compound": "N#Cc1c(N2CCCCCC2)nc(N)c2c(N)nc3c(c12)CC(=O)N3c1ccc(F)cc1", "reported_value": "-7% (inactive)"}
{"compound": "Cc1c(C)n(C2CCCC2)c2ncnc(OC3CCN(CC(=O)NC4CC4)CC3)c12", "reported_value": "13% (inactive)"}
{"compound": "S=C(NN=Cc1ccccn1)Nc1ccc2c(c1)OCCO2", "reported_value": "55% (active)"}
{"compound": "CCNc1cc(C(=O)N[C@@H](Cc2ccc(Cl)cc2)[C@H](O)CNC2CCCCC2)cc(N2CCCCS2(=O)=O)c1", "reported_value": "6% (inactive)"}
{"compound": "ON=C1c2cc(OCCN3CCCCC3)c(Cl)cc2-c2cc(Cl)c(OCCN3CCCCC3)cc21", "reported_value": "99% (active)"}
{"compound": "O=C(c1ccc([N+](=O)[O-])o1)N1CCC(Cc2ccc(C(F)(F)F)cc2)CC1", "reported_value": "38% (inactive)"}
{"compound": "CC(CNc1nc(NCC(c2ccccc2)c2ccccc2)c2[nH]cnc2n1)c1ccccc1 (configuration not stated)", "reported_value": "5% (inactive)"}
{"compound": "Cc1cccc2[nH]c(-c3cccc(-c4ccc(CNCc5cccc(N)c5)cc4)c3)nc12", "reported_value": "19% (inactive)"}
{"compound": "O=C(CC(c1ccccc1)c1ccccc1O)N1CCOCC1 (configuration not stated)", "reported_value": "30% (inactive)"}
{"compound": "O=C(/C=C/c1ccc(Cl)c(Cl)c1)NC1CCC(CN2CCC(c3nc4ccccc4s3)CC2)CC1 (configuration not stated)", "reported_value": "50% (active)"}

Which measured inhibition value corresponds to Cc1c(CC(=O)N(C)C2CCN(CCCCCNC(=O)/C=C/c3ccc(Cl)c(Cl)c3)CC2)sc2ccc(Cl)cc12 ? 93% (active)

Then this compound: CCC(C)OC(=O)C1=C(C)NC2=C(C(=O)CC(c3ccc(OC)c(OC)c3)C2)C1c1ccc(C)o1 (configuration not stated) 6% (inactive)

Then this compound: Cc1ccccc1N1CCN(c2ccc(C(=O)Nc3ccccc3)cc2)CC1 22% (inactive)

Then this compound: Cc1nc(-c2ccc(-c3ccc(C(=O)Nc4ccc(I)c(OCCN5CCCC5)c4)cc3)c(C)c2)no1 96% (active)

* * *

assay_procedure: human hepatoma cell viability loss – ATP luminescence, cytotoxicity control for P. falciparum antimalarial project, primary screen (AID 2303);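 further: 0% = DMSO wells and 100% = digitonin-killed cells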
condition_parameters: HepG2 viability, 24-48 h, at 10 µM
Calls of active or inactive are those of the source.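 Rule for the calls: active = inhibition above 50%; inactive = the rest.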
Allowed answers: label 1 for active, label 0 for inactive

{"compound": "O=C(Nc1ccc(OC2CCN(Cc3ccc(F)cc3)C2)cc1)c1ccco1 (stereo not given)", "assigned_category": "label 0"}
{"compound": "N#Cc1cccc(-c2nc(NCc3cccc(C(F)(F)F)c3)nn2-c2cccc(C(F)(F)F)c2)c1", "assigned_category": "label 0"}
{"compound": "Nc1ncc(-c2ccc3nccc(-c4ccncc4)c3c2)cc1S(=O)(=O)N1CCOCC1", "assigned_category": "label 0"}
{"compound": "CCn1c2ccccc2c2cc(Cc3cnc(N)nc3N)ccc21", "assigned_category": "label 0"}
{"compound": "CCOC(=O)NC1=NC(C)(C)N(OCc2cccc3c2ccc2ccccc23)C(NC(=O)OCC)=N1", "assigned_category": "label 0"}
{"compound": "c1cncc(CCNCc2ccc(-c3cccc(-c4nc5ccccc5[nH]4)c3)cc2)c1", "assigned_category": "label 0"}

Record lookup: outcome of this test for COc1ccc2c(NN=Cc3cccc([N+](=O)[O-])c3)cc(C)nc2c1 ? label 0

Then this compound: Cc1cc(O)c(CN(C)Cc2ccc3c(c2)OCCO3)cc1C(C)C label 0

Then this compound: COc1ccccc1CCNc1nc(C)cc(NCCC(=O)Nc2ccccc2)n1 label 0

Then this compound: COc1cc2nc(NC3CCN(Cc4ccccc4)CC3)nc(N)c2cc1OC label 0

Then this compound: Nc1nc(N)c2c(CCc3ccc(Cl)c(Cl)c3)cccc2n1 label 1

Then this compound: O=C(CCc1cccnc1)Nc1cccc(-c2ccc(-c3nc4ccc(C(F)(F)F)cc4[nH]3)cc2)c1 label 0

Then this compound: CCCCn1c(Sc2ccc(C#N)c([N+](=O)[O-])c2)nnc1-c1cc(OC)cc(OC)c1 label 0

Then this compound: Cc1cccc(CN2CCCN(Cc3cccc(C(=O)Nc4ccc(C(C)(C)C)cc4)c3)CC2)c1 label 1

Then this compound: c1cncc(CCNCc2cccc(-c3csc(-c4nc5ccccc5[nH]4)c3)c2)c1 label 0

Then this compound: N#Cc1ccc(N2CCN(Cc3ccc(-c4ccc(-c5nc6ccc(F)cc6[nH]5)s4)cc3)CC2)nc1 label 0

Then this compound: COC(=O)c1ccc(CCC(C)NCC(O)c2cccc(Cl)c2)cc1 (stereo not given) label 0

Then this compound: Nc1ncnc2nc(-c3ccc(F)cc3)cc(-c3ccc(NC(=O)c4ccccc4)cc3)c12 label 0

Then this compound: Cc1cc2c(cc1C(F)(F)F)N(C(=O)Nc1cccc(C(=O)NC3CCN(Cc4ccccc4)CC3)c1)CC2 label 0

Then this compound: CCCN(C(=O)c1ccccc1C)c1nnc(-c2cccc(C)c2)s1 label 0

* * *

assay_procedure: human hepatoma cell viability loss – ATP luminescence, cytotoxicity control for P. falciparum antimalarial project, primary screen (AID 2303);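 further: 0% = DMSO wells and 100% = digitonin-killed cells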
condition_parameters: HepG2 viability, 24-48 h, at 10 µM
Calls of active or inactive are those of the source.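 The calls were made as follows: active = inhibition above 50%; inactive = the rest.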
Allowed answers: active, inactive

Worked cases, answers included:
{"compound": "CNCc1cccc2[nH]c(-c3ccc(Cc4cc(Cl)ccc4OCC(C)C)o3)nc12", "assigned_category": "inactive"}
{"compound": "COc1cc(Br)ccc1N1CCN(CCCCNC(=O)c2ccc(NC(=O)c3ccc(Cl)cc3)cc2)CC1", "assigned_category": "active"}
{"compound": "Cc1cc(N(C)C)nc(Nc2ccc(NC(=O)c3ccc(F)cc3)cc2)n1", "assigned_category": "inactive"}

Consider now this further compound.
Record lookup: outcome of this test for Oc1cccc(Nc2nc(NCc3ccccc3)c3ccccc3n2)c1 ? inactive

* * *

assay_procedure: inhibition of 3D7 malaria parasite growth – strain 3D7 (AID 2306);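 further: 0% = DMSO wells and 100% = chloroquine plus artemisinin control wells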
condition_parameters: P. falciparum 3D7 erythrocytic growth, LDH absorbance, 72 h; at 2 µM; hits give high values
Activity calls are given as the source filed them. The rule behind the calls is not given here.
recorded_endpoint: growth inhibition

{"molecule": "O=C(NCCCCCN1CCC(c2c[nH]c3ccccc23)CC1)Nc1cccc(I)c1", "reported_value": "99% (active)"}
{"molecule": "COc1ccc(C=C2SC(=O)NC2=Nc2ccccc2)c(OC)c1", "reported_value": "91% (active)"}
{"molecule": "Cn1nc(C(F)(F)F)c(-c2ccc(Br)cc2)c1NC(=O)Nc1ccc(F)cc1F", "reported_value": "99% (active)"}
{"molecule": "N#Cc1ccc(-c2cnc3ccc(NCc4ccc(S(N)(=O)=O)cc4)nn23)cc1", "reported_value": "98% (active)"}
{"molecule": "COc1ccc(CNCc2ccc(F)cc2)cc1-c1ccc(S(=O)(=O)NCCN2CCCC2)s1", "reported_value": "101% (active)"}

Which measured growth inhibition value corresponds to CC(C)[C@H](NC(=O)c1ccc(O)c(-c2ccc(Cl)c(Cl)c2)c1)C(=O)NCCN(C)C ? 92% (active)

Then this molecule: COc1ccccc1C(=O)Nc1ccc(Nc2nc(C)cc(N(C)C)n2)cc1 100% (active)

* * *

assay_procedure: inhibition of 3D7 malaria parasite growth – strain 3D7 (AID 2306);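 further: 0% = DMSO wells and 100% = chloroquine plus artemisinin control wells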
condition_parameters: P. falciparum 3D7 erythrocytic growth, LDH absorbance, 72 h; at 2 µM; hits give high values
recorded_endpoint: growth inhibition (%)
API: value field is a number in %; no unit string.

Reference set, count: 6
{"compound": "CCNc1cc(C(=O)N[C@@H](Cc2ccccc2)[C@H](O)CNC2(Cc3cccc(Cl)c3)CCC2)cc(N2CCCCS2(=O)=O)c1", "units_of_measure": "%", "growth inhibition": 95}
{"compound": "Cc1c(-c2ccc3c(c2)C(NCCCN2CCCCC2)CC3)cnc(N)c1C (stereo not drawn)", "units_of_measure": "%", "growth inhibition": 97}
{"compound": "CCN(CC)CCCN(C(=O)Nc1c(Cl)cncc1Cl)c1nc(-c2ccc(F)cc2)cs1", "units_of_measure": "%", "growth inhibition": 101}
{"compound": "N#Cc1ccc(N2CCN(Cc3cccc(-c4cccc(-c5nc6ccc(C(F)(F)F)cc6[nH]5)c4)c3)CC2)nc1", "units_of_measure": "%", "growth inhibition": 99}
{"compound": "CCN(CCNC(=O)C1CCN(c2cc(-c3cccc(C)c3)ncn2)CC1)Cc1ccccc1", "units_of_measure": "%", "growth inhibition": 83}
{"compound": "CCN1CCC(NCc2ccc(-c3ccc(Cl)s3)cc2)CC1", "units_of_measure": "%", "growth inhibition": 96}

Which measured growth inhibition value corresponds to O=C(Nc1ccc(OCc2ccccc2)cc1)c1nc2ccccc2nc1Cl ? 96

Then this compound: COc1ccc2nccc([C@@H](O)CN3CCC(NC[C@H](Cc4ccccc4)NC(=O)OC(C)(C)C)CC3)c2c1 98

Then this compound: CCCNCc1ccc(-c2ccc(CN(CCOC)C(=O)c3ccc([N+](=O)[O-])c(C)c3)cc2)nc1 97

Then this compound: COc1ccc(-c2cnc3ccc(NCc4ccc(F)cc4)nn23)cc1OC 97

Then this compound: O=C(Nc1ccc(C(=O)N(Cc2ccc3c(c2)OCO3)C2CCCC2)cc1)c1cccs1 97

Then this compound: COc1cc(Cc2cnc(N)nc2N)ccc1OCc1ccc(-c2ccccc2C#N)cc1 93

Then this compound: COc1ccc(CN2CCC(CNCc3cccc(-c4ccccc4)c3)CC2)cc1 100

Then this compound: CCCOC(=O)c1ccc(OCCCON2C(N)=NC(N)=NC2(C)C)cc1 95

Then this compound: CCCOc1ccc(C=C(CC(=O)O)c2nc3ccccc3s2)cc1OCC 89

Then this compound: Cc1cc(N[C@@H](CC(C)C)C(=O)NCCc2ccccc2)nc(NCc2ccccc2C)n1 93

Then this compound: OC(CNCc1ccccc1Oc1ccccc1)c1cc(Br)cs1 (stereo not drawn) 94

Then this compound: C[C@@H](C(=O)N1CCOCC1)N1CC[C@H](NS(=O)(=O)c2ccc3ccnc(N)c3c2)C1=O 84

Then this compound: Cc1[nH]c(C)c(-c2ccc(-c3ccccc3F)nc2)c(=O)c1Cl 97

Then this compound: CC(=O)Nc1ccc(NC(=O)c2cc(-c3ccc(C)cc3O)n[nH]2)cc1 101

Then this compound: Cc1cc(O)c(CN(C)Cc2ccc(N(C)C)cc2)cc1C(C)C 100

These data points were gathered from PubChem BioAssay.
